Source listed as patent US6875761B2.

The following compounds have recorded pKi on serotonin 2 receptor (Rattus norvegicus).
Sequence (P14842 whole entry): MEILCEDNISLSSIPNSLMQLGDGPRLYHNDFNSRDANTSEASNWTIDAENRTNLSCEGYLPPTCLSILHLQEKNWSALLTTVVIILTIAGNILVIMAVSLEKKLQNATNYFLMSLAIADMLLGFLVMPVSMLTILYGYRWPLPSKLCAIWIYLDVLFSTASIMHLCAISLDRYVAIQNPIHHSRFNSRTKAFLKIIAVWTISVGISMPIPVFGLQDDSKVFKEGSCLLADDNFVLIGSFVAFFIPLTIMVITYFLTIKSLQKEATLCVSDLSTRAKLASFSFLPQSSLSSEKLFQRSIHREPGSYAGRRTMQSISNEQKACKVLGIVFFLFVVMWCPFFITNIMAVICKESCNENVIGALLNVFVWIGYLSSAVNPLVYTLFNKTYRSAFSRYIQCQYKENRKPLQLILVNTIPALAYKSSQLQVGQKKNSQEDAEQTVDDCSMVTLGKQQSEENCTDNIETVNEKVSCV
Where a name gives a salt, the structure may show the parent alone.
pKi (log units): -log10 of the concentration in mol/L.

Compound	Property	Val
CCN1CCN(c2nc(-c3ccc([C@@H]4C[C@@H](O)CCO4)cc3)cc3ccccc23)CC1 (relative stereo) [Example 402, Dihydrochloride]	pKi	8.68
CCN1CCN(c2nc(-c3ccc(CCCO)c(OC)c3)cc3ccccc23)CC1 [Example 33, hydrochloride]	pKi	7.96

Next, consider the following compound.
Request - read-out pKi | tested on serotonin 2 receptor (Rattus norvegicus) | compound CCN1CCN(c2nc(-c3ccc(CCCO)c(OC)c3)cc3ccsc23)CC1 [Example 433, hydrochloride] 8.45
